Entry source: the RNAGym collection of RNA variant scans (doi:10.7554/elife.80360)

B1: HDV Ribozyme (parent)
chain: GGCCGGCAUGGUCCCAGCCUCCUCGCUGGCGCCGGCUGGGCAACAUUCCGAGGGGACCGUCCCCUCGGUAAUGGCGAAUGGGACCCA

# Variants of: B1
# procedure_summary: self-cleavage, relative activity (ratio to wild type); higher = more cleavage; co-transcriptional
Exercise: for every item that follows, state its recorded self-cleavage.
Lab note: record just the number, no unit beside it.

Input: Entry G10C G28C : reported self-cleavage = ?
Output: 0.107

Input: Entry G29A U37G : reported self-cleavage = ?
Output: 0.0723

Input: Entry G52A A56C : reported self-cleavage = ?
Output: 1.11

Input: Entry C19U C86A : reported self-cleavage = ?
Output: 0.194

Input: Entry C24U A77U : reported self-cleavage = ?
Output: 0.0791
